Source listed as patent US7276337B2.

molecular target: Ribonuclease T1 (Aspergillus oryzae, UniProt P00651); assay: Visual detection ribonuclease assay, cleavage of Substrate ODN by RNase T1; assay type: biochemical; parameters: key: +++ = maximum intensity; ++ = moderate intensity; + = faint but above background; − = negative (identical to background); settings: RNase T1 10^−4 units/ml; visual inspection, UV excitation; Substrate 500 nM; 37° C. 60 minutes
Sequence (P00651 27-130): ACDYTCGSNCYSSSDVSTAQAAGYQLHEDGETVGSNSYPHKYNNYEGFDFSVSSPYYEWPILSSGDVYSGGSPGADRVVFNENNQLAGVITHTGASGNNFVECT
endpoint: Sensitivity of Substrate ODN to Ribonuclease T1, relative signal intensity

# annotated cases, reported Sensitivity of Substrate ODN to Ribonuclease T1, relative signal intensity shown
# substance, targetOrTestSystem, observedResult
data = [
    ("5′ Fluorescein-AaggucA-QSY-7 3′ (NAAGGUCAN; 5' fluorescein and 3' QSY-7 labels, nucleotide chemistry not given here) [SEQ ID NO:28]", "Ribonuclease T1 (Aspergillus oryzae, UniProt P00651)", "+++"),
    ("5′ Fluorescein-AacAA-Dabcyl 3′ (NAACAAN; 5' fluorescein and 3' Dabcyl labels, nucleotide chemistry not given here) [SEQ ID NO:8]", "Ribonuclease T1 (Aspergillus oryzae, UniProt P00651)", "−"),
    ("5′ Fluorescein-AgucaA-Dabcyl 3′ (NAGUCAAN; 5' fluorescein and 3' Dabcyl labels, nucleotide chemistry not given here) [SEQ ID NO:23]", "Ribonuclease T1 (Aspergillus oryzae, UniProt P00651)", "−"),
    ("5′ Fluorescein-AagucA-QSY-7 3′ (NAAGUCAN; 5' fluorescein and 3' QSY-7 labels, nucleotide chemistry not given here) [SEQ ID NO:27]", "Ribonuclease T1 (Aspergillus oryzae, UniProt P00651)", "++"),
]

QUERY: Please look up its Sensitivity of Substrate ODN to Ribonuclease T1, relative signal intensity: 5′ Fluorescein-AAuAA-Dabcyl 3′ (NAAUAAN; 5' fluorescein and 3' Dabcyl labels, nucleotide chemistry not given here) [SEQ ID NO:3]
RESULT: −

QUERY: Please look up its Sensitivity of Substrate ODN to Ribonuclease T1, relative signal intensity: 5′ Fluorescein-AcggA-Dabcyl 3′ (NACGGAN; 5' fluorescein and 3' Dabcyl labels, nucleotide chemistry not given here) [SEQ ID NO:14]
RESULT: +++

QUERY: Please look up its Sensitivity of Substrate ODN to Ribonuclease T1, relative signal intensity: 5′ Fluorescein-AgaAA-Dabcyl 3′ (NAGAAAN; 5' fluorescein and 3' Dabcyl labels, nucleotide chemistry not given here) [SEQ ID NO:9]
RESULT: +

====

Target: Ribonuclease A (Bos taurus, UniProt P61823)
Sequence (P61823 27-150): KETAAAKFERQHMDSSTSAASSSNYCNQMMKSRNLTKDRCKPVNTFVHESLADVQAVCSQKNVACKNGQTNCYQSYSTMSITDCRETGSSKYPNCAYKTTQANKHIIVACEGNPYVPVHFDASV
Assay: Visual detection ribonuclease assay, cleavage of Substrate ODN by RNase A
Assay type: biochemical, mammalian
Set-up: key: +++ = maximum intensity; ++ = moderate intensity; + = faint but above background; − = negative (identical to background)
Details: RNase A 1 ng/ml; visual inspection, UV excitation; Substrate 500 nM; 37° C. 60 minutes
Description: Nuclease assays were conducted using the methods of the invention. […] Assay Mixes were incubated at room temperature for 10 minutes. Assays were visually examined for fluorescence emission directly in the assay tubes without further manipulation. […] Table 6: Sensitivity of different Substrate ODNs to Ribonuclease A. A series of Substrate ODNs were synthesized and tested for sensitivity to RNase A degradation. […] Results were scored as +++, ++, +, or − based on relative signal intensity. […]
endpoint: Sensitivity of Substrate ODN to Ribonuclease A, relative signal intensity

# annotated cases, reported Sensitivity of Substrate ODN to Ribonuclease A, relative signal intensity shown
# substance, observedResult
data = [
    ("5′ Fluorescein-AuagA-Dabcyl 3′ (NAUAGAN; 5' fluorescein and 3' Dabcyl labels, nucleotide chemistry not given here) [SEQ ID NO:16]", "+++"),
    ("5′ Fluorescein-AgaAA-Dabcyl 3′ (NAGAAAN; 5' fluorescein and 3' Dabcyl labels, nucleotide chemistry not given here) [SEQ ID NO:9]", "−"),
    ("5′ Fluorescein-AcguA-Dabcyl 3′ (NACGUAN; 5' fluorescein and 3' Dabcyl labels, nucleotide chemistry not given here) [SEQ ID NO:15]", "+++"),
    ("5′ Fluorescein-AAaAA-Dabcyl 3′ (NAAAAAN; 5' fluorescein and 3' Dabcyl labels, nucleotide chemistry not given here) [SEQ ID NO:6]", "−"),
]

Let's switch to this substance now.
QUERY: Please look up its Sensitivity of Substrate ODN to Ribonuclease A, relative signal intensity: 5′ Fluorescein-AAcAA-Dabcyl 3′ (NAACAAN; 5' fluorescein and 3' Dabcyl labels, nucleotide chemistry not given here) [SEQ ID NO:5]
RESULT: ++
